Molecular target: HisTag-PCNA (human, UniProt P12004 1-261)
Sequence (P12004 whole entry): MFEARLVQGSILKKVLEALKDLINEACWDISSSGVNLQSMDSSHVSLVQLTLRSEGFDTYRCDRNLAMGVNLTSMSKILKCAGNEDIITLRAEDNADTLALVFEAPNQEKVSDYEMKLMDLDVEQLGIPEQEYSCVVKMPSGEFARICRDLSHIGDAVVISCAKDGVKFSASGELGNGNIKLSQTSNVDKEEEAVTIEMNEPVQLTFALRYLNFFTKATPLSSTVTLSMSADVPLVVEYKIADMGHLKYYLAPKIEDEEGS
Assay: pull-down titration
pKd: −log10 of the molar value.

BINDER	pKd
CATGCTTCCCCAGGGAGATGCCTATGGTCCCCGCGTAGGTGGCAGCTCA (structured_DNA) [alpha-PCNA aptamer (A1 -30/3')]	5.29
